Tested on: Ishikawa endometrial adenocarcinoma cell line
Assay: Alkaline phosphatase (AlkP) activity in Ishikawa cells
Assay type: cell-based, human
Conditions: 1 nM, 72 h, DMSO set to 1
Description: Alkaline phosphatase (AlkP) activity in these human endometrial cancer cells is markedly stimulated by estrogens. Because of the potential SERM character of the compounds tested, their estrogenic effects were studied in an endometrial-derived cell culture model, the human endometrial adenocarcinoma cell line Ishikawa. […] All compounds were screened at two concentrations, 0.1 and 1 µM. Its agonistic effect was compared to the vehicle control DMSO (data shown in Supplementary Materials). […]
quantity kind: Relative alkaline phosphatase activity
Reply: number alone, nothing else.

Challenge: Identify the reported Relative alkaline phosphatase activity for the following entry. COc1ccc(C(C)=C(c2ccc(Cl)cc2)c2ccc(OCCN3CCCCCC3)cc2)cc1F [Compound 19]
Response given: 1.02

Challenge: Identify the reported Relative alkaline phosphatase activity for the following entry. COc1ccc(C(C)=C(c2ccc(Cl)cc2)c2ccc(OCCN3CCCCC3)cc2)cc1 [Compound 12]
Response given: 0.95

Challenge: Identify the reported Relative alkaline phosphatase activity for the following entry. CC(=C(c1ccc(Cl)cc1)c1ccc(OCCCN(C)C)cc1)c1ccccc1 [Compound 5]
Response given: 0.93

Challenge: Identify the reported Relative alkaline phosphatase activity for the following entry. COc1ccc(C(C)=C(c2ccc(Cl)cc2)c2ccc(OCCN3CCCC3)cc2)cc1 [Compound 11]
Response given: 1.25

Hello, the source for this data is paper PMC8621172, in case you need it.
